- Tested on: SF-295 CNS
- TEST: NCI-60 one-dose screen, 48 h
- PROTOCOL_CONDITIONS: 10 µM unless noted
The panel holds about 83,000 compounds, 20% with a hit somewhere; the sample as a whole holds those more often. Activity calls are given as the source filed them. How the source made its calls: active means growth percent below 10; inactive means the rest.
Would you mind answering with one of these outcomes? true (active), false (inactive)

Solved cases (10 shown):
> print(dat)
                                    compound  group.label
 1  CN(C)C[C@@H]1CCn2cc(c3ccccc32)C2=C(C(=O)NC2=O)c2cn(c3ccccc23)CCO1        false
 2  COc1cc(-c2nc(C(=O)Nc3ccc(C)cc3)nn2-c2ccc(F)c(F)c2)cc(OC)c1OC        false
 3  Cn1cnc2c(F)c(Nc3ccc(Br)cc3Cl)c(C(=O)NOCCO)cc21        false
 4  CNS(=O)(=O)Nc1nccc(Cc2c(C)c3ccc(Oc4ncccn4)cc3oc2=O)c1F        false
 5  CN[C@@H]1C[C@H]2O[C@@](C)([C@@H]1OC)n1c3ccccc3c3c4c(c5c6ccccc6n2c5c31)C(=O)N[C@H]4O         true
 6  [2H]C1([2H])[C@H](C)O[C@H](C)C([2H])([2H])N1c1ccc(NC(=O)c2cccc(-c3ccc(OC(F)(F)F)cc3)c2C)cn1        false
 7  O=S1(=O)OC(c2ccc(O)c(Cl)c2)(c2ccc(O)c(Cl)c2)c2ccccc21        false
 8   O=c1[nH]ccc2c(S(=O)(=O)N3CCCNCC3)cccc12        false
 9  CN1CCN(c2ccc(OC(F)(F)F)c(Nc3ncc4c(n3)-c3c(c(C(N)=O)nn3CCO)CC4)c2)CC1        false
10  CCN(CC)CCOc1ccc(/C(=C(\C)c2ccc(Cl)cc2)c2ccc(Cl)cc2)cc1        false

Hi, do you know how c1cc(OCCN2CCCCC2)cc(-c2n[nH]c3ccc(-c4ncn[nH]4)cc23)c1 came out in this test?
false
